Hi there, I'd appreciate the recorded survival for every entry that follows.
Tested on: DeltatarO mutant
Test: S. aureus survival, RN4220 and DeltatarO strains – OD600, teichoic acid synthesis inhibitors, primary screen (AID 463173)
Settings: S. aureus RN4220 wild type/DeltatarO growth, OD600, 18 h, stronger effect = lower value, screened at 18.75 µg/mL (by protocol)
In all, about 52,000 compounds went through this assay and about 4,300 (8.3%) were called active. This is one part of a sample in which actives are shown more often than they occur.

Task: Please give measured survival of the following entry: "COc1ccc(CC(=O)Nc2sc3c(c2C(=O)Nc2ccc(C)cc2)CCCCC3)cc1"
Output: 131% (inactive)

Task: Please give measured survival of the following entry: "CCN(CC)c1ccc(-c2nc(-c3ccncc3)no2)cc1[N+](=O)[O-]"
Output: 79% (inactive)

Task: Please give measured survival of the following entry: "COc1ccc(-c2nc3scc(CCNS(=O)(=O)c4c(C)cc(C)cc4C)n3n2)cc1OC"
Output: 85% (inactive)

Task: Please give measured survival of the following entry: "COc1ccc(CC(=O)Nc2sc3c(c2C(=O)Nc2ccccc2)CCCCC3)cc1"
Output: 68% (inactive)

Task: Please give measured survival of the following entry: "CCN(CC)c1ccc(-c2nc(-c3ccccc3C)no2)cc1[N+](=O)[O-]"
Output: 68% (inactive)

Task: Please give measured survival of the following entry: "c1ccc2c(c1)n1cnnc1c1nncn21"
Output: 85% (inactive)

Task: Please give measured survival of the following entry: Cc1cccc(NC2=CC(c3cccc(Br)c3)N(c3cccc(C)c3)C2=O)c1 (stereo unspecified)
Output: 137% (inactive)

Task: Please give measured survival of the following entry: "CCN(CC)c1ccc(-c2nc(-c3ccco3)no2)cc1[N+](=O)[O-]"
Output: 47% (inactive)

Task: Please give measured survival of the following entry: CCCCOc1ccc(C(C)NC(=O)c2cccc(Nc3nc4ccccc4n4nnnc34)c2)cc1 (stereo unspecified)
Output: 67% (inactive)

Task: Please give measured survival of the following entry: "CCN(Cc1ccc(OC)cc1)c1ccc(-c2nc(-c3ccncc3)no2)cc1[N+](=O)[O-]"
Output: 41% (active)

Task: Please give measured survival of the following entry: "CC(C)(C)c1ccc(C(=O)Nc2cc(-c3nc4ccccc4o3)ccc2Cl)cc1"
Output: 13% (active)

Task: Please give measured survival of the following entry: "CN(Cc1ccccc1)c1ccc(-c2nc(-c3ccccc3)no2)cc1[N+](=O)[O-]"
Output: 69% (inactive)

Task: Please give measured survival of the following entry: "COc1ccc(NC(=O)c2c(NCc3cccc(OC)c3)sc3c2CCCC3)cc1"
Output: 86% (inactive)

Task: Please give measured survival of the following entry: "COc1ccc(CC(=O)Nc2sc3c(c2C(=O)Nc2cccc(Cl)c2)CCCCC3)cc1"
Output: 59% (inactive)

Task: Please give measured survival of the following entry: "O=C(Nc1cc(-c2nc3ccccc3o2)ccc1Cl)c1ccc(Br)o1"
Output: 54% (active)

Task: Please give measured survival of the following entry: "O=C(Cn1c(-c2cccs2)cc2cc(F)ccc21)N1CCN(c2ccccc2)CC1"
Output: 71% (inactive)

Task: Please give measured survival of the following entry: "Cc1ccc2nc(-c3ccc(Cl)c(NC(=O)c4ccc(Br)o4)c3)oc2c1"
Output: 48% (inactive)

Task: Please give measured survival of the following entry: "CC(C)(C)C(=O)OCc1cc(=O)n2nc(C3CC3)sc2n1"
Output: 80% (inactive)

Task: Please give measured survival of the following entry: "COc1ccccc1-c1noc(-c2ccc(N(C)Cc3ccccc3)c([N+](=O)[O-])c2)n1"
Output: 36% (active)

Task: Please give measured survival of the following entry: "COc1ccc(CN(C)c2ccc(-c3nc(-c4ccc(OC)c(OC)c4)no3)cc2[N+](=O)[O-])cc1"
Output: 62% (inactive)

Task: Please give measured survival of the following entry: "Cc1cccc(CNC(=O)C2CCN(c3nnc(-n4c(C)ccc4C)s3)CC2)c1"
Output: 95% (inactive)
